- Tested on: PC-3 cells (human prostate cancer cells)
Each entry below lists one item and its recorded GI50 value.
Reply with just the number (in nM).

Answered cases to consult:
Compound	Recorded value
CCn1cnc2c(N3C=COCC3)nc(SCc3ccc(OC)c(N)c3)nc21	1440
CCc1nc2c(N3C=COCC3)nc(SCc3ccc(OC)cc3)nc2n1C	130
C/C=C/c1nc(SCc2ccc(OC)c([N+](=O)[O-])c2)nc2c1ncn2C	470

Ask: Consider the compound COc1ccc(CSc2nc(-c3ccco3)c3ncn(C)c3n2)cc1 . State its measured GI50.
Reply: 1800

Ask: Consider the compound COc1ccc(CSc2nc(N(C)OC)c3ncn(C)c3n2)cc1N . State its measured GI50.
Reply: 130

Ask: Consider the compound COc1ccc(CSc2nc(N3CCOCC3)c3ncn(C)c3n2)cc1 . State its measured GI50.
Reply: 380

Ask: Consider the compound CCc1nc2c(N(C)C)nc(SCc3ccc(OC)cc3)nc2n1C . State its measured GI50.
Reply: 260

meta.source: patent US9132130B2
